Measurement Description: qHTS Assay for NPC1 Promoter Activators; further: nearly all actives have a fitted effect of over 60% in size;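 on activation: reporter is driven by a mutant NPC1 promoter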
Test Settings: Huh7 NPC1 promoter luciferase reporter, 24 h; series mostly up to 9.22 µM
In all, about 320,000 compounds went through this assay and about 7,600 (2.4%) were called active. Another 3% or so got no clear call; they are omitted. The call rests on the fitted dose curve; in most records, active means well fitted activation curve with a large enough effect; inconclusive means small, poorly fitted or top-dose-only effect; inactive means no such curve, though single readings can be large or run the other way. For the sample, actives were picked, then their nearest neighbours and some compounds at random.
Outcome codes: active, inactive

In [3]: df
Out[3]:
                                    molecule     label
 0       O=C(NCCC1=CCCCC1)c1ccc(-n2cncn2)cc1    active
 1  CCc1ccc(NC(=O)Cn2ncn3c(cc4ccccc43)c2=O)cc1  inactive
 2       CC(C)c1ccc(NC(=O)Cn2ncc3ccccc32)cc1    active
 3  COc1ccc([C@H]2CC(=O)C=C(/C=C/c3ccccc3)C2)cc1  inactive
 4  CCCCN(C(=O)C(CCSC)N1C(=O)c2ccccc2C1=O)c1c(N)n(CCC)c(=O)[nH]c1=O (configuration not stated)  inactive
 5  Cc1ccccc1C(=O)NC(=S)Nc1ccc(N2CCN(C(=O)c3ccccc3)CC2)cc1  inactive
 6  COc1ccc(C(=O)Nc2ccc(N3CCC(C)CC3)cc2)cc1Br  inactive
 7  CCCCNC(=O)Cn1nc(C)c(S(=O)(=O)N2CCOCC2)c1C  inactive
 8     COc1cccc(C(=O)Nc2cc3c(cc2Br)OCCCO3)c1    active
 9  COc1ccccc1N1CC(C(=O)NCCN2C(=O)S/C(=C\c3cccnc3)C2=O)CC1=O (configuration not stated)  inactive
10  COc1ccc(C2COC(=O)C2=N)c(NC(=O)c2ccccc2)c1 (configuration not stated)  inactive
11  O=C(CSc1ccccc1)Nc1cccc(S(=O)(=O)N2CCCCC2)c1  inactive
12     O=C(COc1cccc(-n2cnnn2)c1)NCCC1=CCCCC1  inactive
13  CS(=O)(=O)c1ccc2nc(NC(=O)c3ccc(Cl)nc3)sc2c1  inactive
14  NS(=O)(=O)c1ccc2nc(NC(=O)CS(=O)(=O)c3ccc(F)cc3)sc2c1  inactive
15  CCOc1ccc(S(=O)(=O)N(CC(=O)NCC(F)(F)F)Cc2ccco2)cc1  inactive
16  Cc1c(NC(=O)CSc2nnc(-c3cccnc3)n2N)c(=O)n(-c2ccccc2)n1C  inactive
17       CCC(=O)c1cn(CCOc2ccccc2OC)c2ccccc12  inactive
18  NS(=O)(=O)c1ccc2nc(NC(=O)C3=COCCO3)sc2c1    active
19  O=C1C=C(c2cccc(Cl)c2O)C[C@@H](c2ccc(F)cc2)C1  inactive
20   CCOC(=O)c1cn(CC(=O)Nc2ccc(C(C)C)cc2)nn1  inactive
21  Cc1nc(SCC(=O)NC2CCCCC2C)c(C#N)c(C)c1C (configuration not stated)  inactive

---

Measurement Description: qHTS Assay for NPC1 Promoter Activators; further: nearly all actives have a fitted effect of over 60% in size; further: potency means the concentration at half of the fitted maximal effect
Test Settings: Huh7 NPC1 promoter luciferase reporter, 24 h; series mostly up to 9.22 µM
The whole screen tested about 320,000 compounds, of which about 7,600 (2.4%) were called active. Inconclusive results (about 3%) are left out. The full list was thinned out, with actives kept by preference.
Observable: Potency

In [3]: df
Out[3]:
                                    compound    recorded_result
 0  O=S(=O)(c1ccccc1)N(Cc1cccc(F)c1)c1ccccc1           inactive
 1        O=C(/C=C/c1ccco1)NC(=S)Nc1ccccc1Br           inactive
 2  CC(C(=O)Nc1ccc(S(=O)(=O)N2CCCC2)cc1)N(C)Cc1ccc(F)cc1 (stereo not given)           inactive
 3  CN(C(=O)COC(=O)CCCc1c[nH]c2ccccc12)c1c(N)n(Cc2ccccc2)c(=O)[nH]c1=O           inactive
 4        CCCc1nnc(NC(=O)c2cc(OC)cc(OC)c2)s1           inactive
 5  COc1ccc(S(=O)(=O)N2CCOCC2)cc1C(=O)Nc1nc2ccccc2s1           inactive
 6    COc1ccc(Oc2c(Cl)cnn(-c3ccccc3)c2=O)cc1           inactive
 7  Cn1c(NC(=O)c2ccc3c(c2)OCO3)cc(=O)n(C)c1=O           inactive
 8  COc1ccc(C(=O)Nc2nc(-c3ccc(S(=O)(=O)N4CCOCC4)cc3)cs2)cc1           inactive
 9              Cc1nnc(NC(=O)/C=C/c2ccco2)s1   2.51 µM (active)
10  CCOC(=O)c1c(C)[nH]c(C(=O)OCC(=O)N2CCCC2=O)c1C           inactive
11  Cc1ccnc(N2C(=O)c3ccc([N+](=O)[O-])cc3C2=O)c1           inactive
12     COc1cccc(NC(=O)COC(=O)/C=C/c2ccco2)c1           inactive
13         Cc1ccc(SCCC(=O)NC(C(C)C)C(C)C)cc1           inactive
14  O=C(Nc1cccc([N+](=O)[O-])c1)c1ccc2c(c1)OCO2           inactive
15  O=C(Nc1nc(-c2ccc(-c3ccccc3)cc2)cs1)c1cnccn1           inactive
16   Cc1ccc(-n2cc3ccc([N+](=O)[O-])cc3n2)cc1  0.794 µM (active)
17           Clc1ccc(-c2csc(-c3ccncc3)n2)cc1           inactive
18  Cc1c(N=Nc2ccc(N(C)C)cc2)c(=O)n(-c2ccccc2)n1C   3.55 µM (active)
19  CN(C(=O)CSc1nnc(-c2ccc(C(C)(C)C)cc2)n1C)C1CCS(=O)(=O)C1 (stereo not given)           inactive
20  C=C(C)C(=O)Nc1cccc(C2=NOC3(C2)C[C@H](C(N)=O)N(C(=O)C(c2ccccc2)c2ccccc2)C3)c1 (stereo not given in full)           inactive
21  CC(C#N)(NC(=O)CN1CCN(S(=O)(=O)c2cc(C(F)(F)F)ccc2Cl)CC1)C1CC1 (stereo not given)           inactive
22  O=C(CC1C(=O)NCCN1CC(c1ccccc1)c1ccccc1)NCC1CCOCC1 (stereo not given)           inactive
23  COc1ccc(-n2ncc3c(N4CCCc5ccccc54)ncnc32)cc1  0.501 µM (active)
24            Cc1cccc(-n2ncc(Cl)c(Cl)c2=O)c1           inactive
25  COc1ccc2oc(=O)c(C(=O)N3CCCc4ccccc43)cc2c1           inactive
26             O=C(Nc1ccccc1)c1ccc2c(c1)OCO2   2.82 µM (active)
27         C/C(=N\NC(=O)OC(C)(C)C)c1ccc[nH]1   2.82 µM (active)
28         CCCCOC(=O)c1[nH]c(C)c(C(=O)OC)c1C   2.82 µM (active)
29    O=C(O)c1ccccc1C(=O)Nc1nc(-c2ccccc2)cs1           inactive
30        O=C(Nc1nc2ccccc2s1)c1ccc2c(c1)OCO2  0.562 µM (active)
31  O=C(OCC(=O)N1CCN(C(=O)c2ccco2)CC1)c1ccc(Cl)c(Cl)c1           inactive
32            CC(=O)c1ccc(OC(=O)N2CCOCC2)cc1           inactive
33  COc1ccc(NS(=O)(=O)c2cc(NC(=O)COc3ccccc3F)ccc2OC)cc1           inactive
34           Cc1ccccc1NC(=O)NNC(=O)OC(C)(C)C           inactive
35  O=C(Nc1nc2cc3c(cc2s1)OCCO3)c1cccc(S(=O)(=O)N2CCOCC2)c1           inactive
36  O=C(CSc1ccccc1)Nc1cccc(S(=O)(=O)N2CCOCC2)c1           inactive
37  CCOC(=O)c1c(C)[nH]c(C(=O)OCC(=O)c2ccc(OC)cc2OC)c1C           inactive
38        CCC(CC)c1nnc(NC(=O)/C=C/c2ccco2)s1           inactive
39      COc1ccccc1OCCOc1ccc(/C=N/n2cnnc2)cc1           inactive
40  COc1ccc(OCCCC(=O)Nc2cccc(S(=O)(=O)N3CCCCCC3)c2)cc1           inactive
41   CCOC(=O)c1c(NC(=O)/C=C/c2ccco2)sc(C)c1C           inactive
42             CCc1ccc2oc(-c3ccc(N)cc3)nc2c1  0.708 µM (active)
43  CCCn1c(CCNc2nc(-c3ccc(OC)cc3)cs2)nc2ccccc21           inactive
44  Cc1ccc(-c2cn(S(=O)(=O)c3cccc([N+](=O)[O-])c3)nc2N)cc1           inactive

---

Measurement Description: qHTS Assay for NPC1 Promoter Activators; further: nearly all actives have a fitted effect of over 60% in size;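 on activation: reporter is driven by a mutant NPC1 promoter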
Test Settings: Huh7 NPC1 promoter luciferase reporter, 24 h; series mostly up to 9.22 µM
Among all 320,000 compounds or so, about 7,600 (2.4%) were called active. Another 3% or so got no clear call; they are omitted. Calls follow the shape of the dose curve; as a rule, active = well fitted activation curve with a large enough effect; inconclusive = small, poorly fitted or top-dose-only effect; inactive = no such curve, though single readings can be large or run the other way. The sample as a whole holds a higher share of actives than the screen did.
Outcome codes: active, inactive

                                    compound     label
 0       C=CCSc1ccc(S(=O)(=O)N2CCN(C)CC2)cn1  inactive
 1           COc1ccc(C(=O)/C=C/Nc2ccccn2)cc1    active
 2  O=C(NC1CCCCCC1)C1CCN(C(=O)c2ccc(Cl)cc2)CC1  inactive
 3  Cc1ccc(C)c(NC(=O)C(c2ccccc2)N2CCN(CC(=O)NC3CC3)CC2)c1 (stereo not drawn)  inactive
 4   COc1ccc(C(=O)/C=C/c2ccc(OC3CSC3)cc2)cc1  inactive
 5  CC(=O)c1cccc(S(=O)(=O)N2CCC(n3nnc4cc(F)ccc43)CC2)c1  inactive
 6  CN(c1ccccc1)S(=O)(=O)c1ccc(C(=O)NCCc2ccccc2)cc1  inactive
 7     CSc1ccc(Cl)c(C(=O)OCC(=O)N2CCNC2=O)c1  inactive
 8          COc1ccc(OCCCC(=O)NCCc2ccccc2)cc1  inactive
 9  O=S(=O)(c1cccc(S(=O)(=O)N2CCC(n3nnc4ccccc43)CC2)c1)N1CCCCC1  inactive
10  COc1ccc(/C=N/OCC(=O)N(Cc2ccccc2)c2ccccc2C(=O)O)cc1  inactive
11  COc1ccc(S(=O)(=O)N2CCOCC2)cc1NC(=O)CSc1cc(C)ccc1C  inactive
12          CCCc1ccc(OCCNC(=O)c2ccccc2Br)cc1  inactive
13                CCNc1nc(-c2cc3ccccc3o2)cs1    active
14  CCN(CC)CCN1C(=O)C(=O)/C(=C(/O)c2cnn(-c3ccccc3)c2C)C1c1cccs1 (stereo not drawn)    active
15  CCOC(=O)N1CCN(S(=O)(=O)c2ccc3c(c2)C(C)C(=O)N3)CC1 (stereo not drawn)  inactive
16  CCOc1ccc(NC(=S)N2CCC(NC(=O)c3ccccc3)CC2)cc1  inactive
17   COc1ccc(/C=N/Nc2nc3ccccc3c(=O)[nH]2)cc1    active
18  CCN(CC(=O)Nc1cc(Cl)ccc1C)C(=O)CSCc1ccccc1  inactive
19  Cc1ccc(NC(=O)c2cccc(S(=O)(=O)N3CCCc4ccccc43)c2)nc1  inactive
20          CC(C)c1ccc(C(=O)NCCCc2ccccc2)cc1    active
21           CN1C(=O)/C(=C/C=C2\SCCN2C)OC1=S    active
22     O=C(CCNC(=O)c1ccc(Br)cc1)NCCCc1ccccc1  inactive

Source listed as PubChem BioAssay AID485313.
